// data source = ChEMBL document CHEMBL1136003

- target-under-test: Adenosine receptor A1 (Homo sapiens) (UniProt P30542)
- experiment-summary: Inhibition of [3H]CPX binding to CHO-K cell membrane expressing human Adenosine A1 receptor
- Type: cell membranes
- Parameters: concentration or dose not given beside the values
- setup-conditions: concentration not given here
Give label 1 when the value for inhibition is at least 40%. Give label 0 when it is less.

The examples below pair each entry with its known result.
Cc1sc(N)c(C(=O)c2cccc(C(F)(F)F)c2)c1C; label 1
Nc1sc2c(c1C(=O)c1cccc(Br)c1)CCC2; label 0
CCOC(=O)c1c(N)sc2c1CCC2; label 1
Nc1sc2c(c1C(=O)c1cccc(Cl)c1)CCCC2; label 1
Nc1sccc1C(=O)c1ccccc1; label 0

Now, please, on to the next compound.
Task: Record Nc1sc2c(c1C(=O)c1ccc(Br)cc1)CCC2 ; criterion: inhibition no lower than 40%. Met?
Output: label 0

----------
- target-under-test: UniProt P30542
- experiment-summary: Allosteric enhancer activity score measured by its ability to stabilize the agonist-receptor-G protein ternary complex at a concentration of 100 uM
- Assay type: functional
Please provide measured AE Score for the entries that follow.
Answers are plain numbers, in %.

N#Cc1ccc(C(=O)c2c(N)sc3c2CCCC3)cc1; 19
Nc1sc2c(c1C(=O)c1ccc(-c3ccccc3)cc1)CCC2; 38
Nc1sc2c(c1C(=O)c1cccc(F)c1)CCCC2; 22
Cc1sc(C(=O)O)c(C(=O)c2ccccc2)c1C; 0
Nc1sc2c(c1C(=O)c1ccc(Cl)cc1)CCC2; 70

Please give AE Score for each item listed below.
1. CCOC(=O)c1c(N)sc2c1CCCCC2
2. Nc1sc2c(c1C(=O)c1ccc(Br)cc1)CCC2

Output:
[0.3, 62]

Please give AE Score for each item listed below.
1. Nc1sccc1C(=O)c1cccc(Cl)c1
2. Nc1sc2c(c1C(=O)c1ccc(I)cc1)CCCC2

Output:
1. 0
2. 86

Please give AE Score for each item listed below.
1. Cc1sc(C(=O)O)c(C(=O)c2ccc(-c3ccccc3)cc2)c1C
2. Nc1sc2c(c1C(=O)c1ccccc1)CCCC2
3. Nc1sccc1C(=O)c1ccc(Br)cc1

Output:
0
19
0.8

Task: Tell me the measured AE Score of Nc1sc2c(c1C(=O)c1ccc(Br)cc1)CCCC2 , please.
Output: 83

----------
- target-under-test: Adenosine receptor A1 (Homo sapiens)
- Sequence (whole entry): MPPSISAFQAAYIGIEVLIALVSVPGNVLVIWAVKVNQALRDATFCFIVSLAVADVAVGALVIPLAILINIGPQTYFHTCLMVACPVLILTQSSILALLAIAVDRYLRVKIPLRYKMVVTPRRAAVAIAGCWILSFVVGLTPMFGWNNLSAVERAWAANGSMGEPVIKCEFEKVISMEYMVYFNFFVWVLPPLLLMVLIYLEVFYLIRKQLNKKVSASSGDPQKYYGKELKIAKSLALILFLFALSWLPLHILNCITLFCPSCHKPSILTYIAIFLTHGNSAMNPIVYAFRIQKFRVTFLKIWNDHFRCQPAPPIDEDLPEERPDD
- experiment-summary: Allosteric enhancer activity score measured by its ability to stabilize the agonist-receptor-G protein ternary complex at a concentration of 100 uM
- Type: functional
readout-name: AE Score (%)
Give bare numbers, in %.

Nc1sc2c(c1C(=O)c1ccccc1)CCCCC2; 13
Nc1sc2c(c1C(=O)c1ccc(I)cc1)CCCCC2; 96
Nc1sc2c(c1C(=O)c1cccc(Br)c1)CCC2; 68

Please give AE Score for each item listed below.
1. Nc1sc2c(c1C(=O)c1ccc(F)cc1)CCCC2
2. Cc1sc(C(=O)O)c(C(=O)c2cccc(C(F)(F)F)c2)c1C
3. Nc1sc2c(c1C(=O)c1cccc(Cl)c1)CCCC2
4. Nc1sc2c(c1C(=O)c1ccc(Cl)cc1)CCCCC2
5. Nc1sc2c(c1C(=O)c1cccc3ccccc13)CCCCC2

Output:
17
0
70
65
81

Please give AE Score for each item listed below.
1. Nc1sc2c(c1C(=O)c1cccc(I)c1)CCCCC2
2. Nc1sc2c(c1C(=O)c1ccccc1)CCC2
3. COc1cccc(C(=O)c2c(N)sc3c2CCCCC3)c1

Output:
1. 86
2. 20
3. 99

Please give AE Score for each item listed below.
1. Cc1cc(C)c(C(=O)c2c(N)sc(C)c2C)c(C)c1
2. Nc1sc2c(c1C(=O)c1ccc(C3CCCCC3)cc1)CCCCC2
3. Cc1sc(N)c(C(=O)c2cccc(F)c2)c1C
4. Cc1sc(N)c(C(=O)c2cccc(Br)c2)c1C
5. Nc1sc2c(c1C(=O)c1ccc(-c3ccccc3)cc1)CCCCC2
6. Nc1sc2c(c1C(=O)c1ccc3ccccc3c1)CCCCC2
7. Cc1sc(N)c(C(=O)c2ccccc2)c1C

Output:
[0, 77, 0, 16, 88, 75, 9]

----------
- target-under-test: Adenosine receptor A1 (Homo sapiens)
- experiment-summary: Inhibition of [3H]CPX binding to CHO-K cell membrane expressing human Adenosine A1 receptor
- Assay type: cell membranes
- Set-up: concentration or dose not given beside the values
- setup-conditions: concentration not given here
readout-name: inhibition (%)
Answers are plain numbers, in %.

Some molecules with recorded inhibition:
Nc1sc2c(c1C(=O)c1cccc(Cl)c1)CCC2; 56
Nc1sc2c(c1C(=O)c1cccc(Br)c1)CCCC2; 49
Nc1sc2c(c1C(=O)c1ccccc1)CCC2; 56

// below: inhibition requested for another molecule
Task: Tell me the measured inhibition of Nc1sc2c(c1C(=O)c1cccc(F)c1)CCCC2 , please.
Output: 35

----------
Please provide measured AE Score for the entries that follow.
- target-under-test: Adenosine receptor A1 (Homo sapiens) (UniProt P30542)
- Sequence (whole entry): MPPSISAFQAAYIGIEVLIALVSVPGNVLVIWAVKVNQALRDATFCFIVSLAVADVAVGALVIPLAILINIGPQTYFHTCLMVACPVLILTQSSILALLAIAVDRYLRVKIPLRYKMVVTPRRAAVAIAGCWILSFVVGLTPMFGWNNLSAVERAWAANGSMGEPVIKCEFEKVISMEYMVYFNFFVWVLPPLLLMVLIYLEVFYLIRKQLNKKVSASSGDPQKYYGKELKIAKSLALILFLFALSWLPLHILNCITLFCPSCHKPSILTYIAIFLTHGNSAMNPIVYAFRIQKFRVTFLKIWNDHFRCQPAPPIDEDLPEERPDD
- experiment-summary: Allosteric enhancer activity score measured by its ability to stabilize the agonist-receptor-G protein ternary complex at a concentration of 100 uM
- Format: functional
Answers are plain numbers, in %.

Some molecules with recorded AE Score:
Nc1sc2c(c1C(=O)c1ccc(-c3ccccc3)cc1)CCCC2; 33
Nc1sc2c(c1C(=O)c1cccc(Cl)c1)CCC2; 13

Please give AE Score for each item listed below.
1. Nc1sc2c(c1C(=O)c1ccc(F)cc1)CCCCC2
2. Cc1cccc(C(=O)c2c(N)sc(C)c2C)c1
3. CCOC(=O)c1c(N)sc2c1CCCC2
4. Nc1sc2c(c1C(=O)c1ccc(F)cc1)CCC2
5. Nc1sc2c(c1C(=O)c1cccc(Cl)c1)CCCCC2

Output:
1: 22; 2: 18; 3: 3.5; 4: 22; 5: 65

Please give AE Score for each item listed below.
1. Nc1sc2c(c1C(=O)c1ccc3ccccc3c1)CCCC2
2. Cc1sc(N)c(C(=O)c2cccc(Cl)c2)c1C
3. Nc1sccc1C(=O)c1ccc(Cl)cc1
4. Nc1sc2c(c1C(=O)c1cccc(Br)c1)CCCC2

Output:
[86, 14, 0, 49]

----------
- target-under-test: UniProt:P30542
- Sequence (whole entry): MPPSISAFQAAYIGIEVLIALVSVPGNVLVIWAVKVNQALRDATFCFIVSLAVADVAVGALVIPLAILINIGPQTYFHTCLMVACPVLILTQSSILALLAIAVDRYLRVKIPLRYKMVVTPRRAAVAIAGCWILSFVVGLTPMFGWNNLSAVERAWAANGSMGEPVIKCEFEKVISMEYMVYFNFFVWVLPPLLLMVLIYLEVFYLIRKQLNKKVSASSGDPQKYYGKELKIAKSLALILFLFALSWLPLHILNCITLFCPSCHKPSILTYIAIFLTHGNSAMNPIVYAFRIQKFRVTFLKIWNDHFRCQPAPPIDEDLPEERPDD
- experiment-summary: Allosteric enhancer activity score measured by its ability to stabilize the agonist-receptor-G protein ternary complex at a concentration of 100 uM
- Type: functional
readout-name: AE Score (%)
Answers are plain numbers, in %.

Some compounds with recorded AE Score:
Nc1sc2c(c1C(=O)c1cccc(Br)c1)CCCCC2; 78
Nc1sccc1C(=O)c1cccc(F)c1; 0
Nc1sc2c(c1C(=O)c1ccc3ccccc3c1)CCC2; 31
Cc1ccc(C(=O)c2c(N)sc3c2CCCC3)cc1; 19
Nc1sc2c(c1C(=O)c1ccc(Cl)cc1)CCCC2; 68
Cc1sc(N)c(C(=O)c2cccc(C(F)(F)F)c2)c1C; 19
Cc1sc(N)c(C(=O)c2ccc(-c3ccccc3)cc2)c1C; 12

// below: AE Score requested for another compound
Task: Tell me the measured AE Score of Nc1sccc1C(=O)c1ccc(Cl)c(Cl)c1 , please.
Output: 1.7
